Values compiled from patent US7157430B2.

measured_target: MCH-5 (Homo sapiens, UniProt Q14790)
Sequence (Q14790 217-374 limits assumed, species assumed): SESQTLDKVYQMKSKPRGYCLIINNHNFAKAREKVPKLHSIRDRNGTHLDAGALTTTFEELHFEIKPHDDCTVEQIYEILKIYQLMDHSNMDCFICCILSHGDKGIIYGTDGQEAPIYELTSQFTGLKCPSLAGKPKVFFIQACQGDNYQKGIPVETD
Sequence (Q14790 385-479 limits assumed, species assumed): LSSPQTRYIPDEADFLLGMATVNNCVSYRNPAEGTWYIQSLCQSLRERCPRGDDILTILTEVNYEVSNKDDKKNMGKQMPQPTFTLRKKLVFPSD
assay_summary: Dissociation constant Ki and irreversible rate constant k3 for irreversible inhibitors, Mch5
condition_parameters: continuous assay 60 min, reaction initiated by adding enzyme
pKi: −log10 of the molar value.
reported_property: pKi

A: CC(C)[C@H](NC(=O)COc1cccc2ccccc12)C(=O)N[C@@H](CC(=O)O)C(=O)COC(=O)c1c(Cl)cccc1Cl
B: CC(C)[C@H](NC(=O)COc1cccc2ccccc12)C(=O)N[C@@H](CC(=O)O)C(=O)COc1c(F)ccc(F)c1F
C: CC(C)[C@H](NC(=O)COc1cccc2ccccc12)C(=O)N[C@@H](CC(=O)O)C(=O)COc1cc(F)cc(F)c1F
D: CC(C)[C@H](NC(=O)COc1cccc2ccccc12)C(=O)N[C@@H](CC(=O)O)C(=O)COc1ccnc(C(F)(F)F)n1
Please list these compounds in decreasing order of pKi. In your reply, arrange the labels in the requested order.
A, B, D, C

1: CC(C)[C@H](NC(=O)COc1cccc2ccccc12)C(=O)NC(CC(=O)O)C(=O)CF (mixture of isomers)
2: CC(C)[C@H](NC(=O)CCOc1cccc2ccccc12)C(=O)N[C@@H](CC(=O)O)C(=O)COc1cc(C(F)(F)F)n(-c2ccccc2)n1
Sort 1 and 2 by pKi descending and give the first. Please identify the chosen entry by its label.
1

I: CC(C)[C@H](NC(=O)COc1cccc2ccccc12)C(=O)N[C@@H](CC(=O)O)C(=O)COc1cccc(F)c1
II: CC(C)[C@H](NC(=O)COc1ccc2ccccc2c1)C(=O)NC(CC(=O)O)C(=O)CF (mixture of isomers)
III: CC(C)[C@H](NC(=O)COc1cccc2ccccc12)C(=O)N[C@@H](CC(=O)O)C(=O)COc1cc(F)c(F)cc1F
IV: Cc1cc(OCC(=O)[C@H](CC(=O)O)NC(=O)[C@@H](NC(=O)COc2cccc3ccccc23)C(C)C)cc(=O)o1
Hey, can you sort those compounds up there by pKi, smallest first? Please, when replying, give the labels in the order that was requested.
IV, III, I, II

---

measured_target: MCH-2 (Homo sapiens, UniProt P55212)
Sequence (P55212 24-179 limits assumed): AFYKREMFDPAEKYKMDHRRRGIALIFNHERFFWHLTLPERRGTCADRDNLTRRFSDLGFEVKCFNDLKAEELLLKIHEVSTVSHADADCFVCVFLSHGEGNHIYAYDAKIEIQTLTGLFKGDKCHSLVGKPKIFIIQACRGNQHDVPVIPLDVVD
Sequence (P55212 194-293 limits assumed): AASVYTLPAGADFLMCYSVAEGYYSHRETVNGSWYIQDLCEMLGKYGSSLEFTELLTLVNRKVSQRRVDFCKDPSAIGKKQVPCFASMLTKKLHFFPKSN
assay_summary: Dissociation constant Ki and irreversible rate constant k3 for irreversible inhibitors, Mch2
Type: biochemical
condition_parameters: continuous assay 60 min, reaction initiated by adding enzyme
reported_property: MCH-2 k3/Ki

Study these solved cases before continuing.
# smiles_representation, MCH-2 k3/Ki
records = [
    ("CC(C)[C@H](NC(=O)COc1cccc2ccccc12)C(=O)N[C@@H](CC(=O)O)C(=O)COc1ccc(F)c(F)c1", "90 M⁻¹ s⁻¹"),
    ("CC(C)C[C@H](NC(=O)COc1ccccc1-c1ccccc1)C(=O)N[C@@H](CC(=O)O)C(=O)COc1c(F)c(F)cc(F)c1F", "91,700 M^−1s^−1"),
]

In the following, a different compound is considered.
Given CC(C)[C@H](NC(=O)COc1ccccc1-c1ccccc1)C(=O)N[C@@H](CC(=O)O)C(=O)COc1c(F)c(F)cc(F)c1F , state its recorded MCH-2 k3/Ki.
191,000 M^−1s^−1

---

measured_target: MCH-2 (Homo sapiens, UniProt P55212)
assay_summary: Dissociation constant Ki and irreversible rate constant k3 for irreversible inhibitors, Mch2
Type: biochemical
condition_parameters: continuous assay 60 min, reaction initiated by adding enzyme
Each record here notes measured MCH-2 k3/Ki.

The examples below pair each entry with its known result.
# smiles_representation, reported_property, result_value
rows = [
    ("CC(C)[C@H](NC(=O)COc1cccc2ccccc12)C(=O)N[C@@H](CC(=O)O)C(=O)COc1cc(F)ccc1F", "MCH-2 k3/Ki", "1,330 M^−1s^−1"),
    ("CC(C)[C@H](NC(=O)COc1cccc2ccccc12)C(=O)N[C@@H](CC(=O)O)C(=O)COP(C)(C)=O", "MCH-2 k3/Ki", "6,090 M^−1s^−1"),
    ("CC(C)[C@H](NC(=O)COc1cccc2ccccc12)C(=O)N[C@@H](CC(=O)O)C(=O)COc1c(F)cc(F)cc1F", "MCH-2 k3/Ki", "5,140 M^−1s^−1"),
]

Now turn to the next molecule.
MCH-2 k3/Ki for CC(C)C[C@H](NC(=O)COc1ccccc1-c1ccccc1)C(=O)N[C@@H](CC(=O)O)C(=O)COC(=O)c1c(Cl)cccc1Cl ?
104,000 M^−1s^−1
